Attribution: paper PMC10447463

# Format: physicochemical
# test conditions: ThT fluorescence relative to blank (42.1851851851852 a.u.)
Kindly return true (1) if reported Tht rel to blank (42.1851851851852) is no lower than 3; return false (0) if it is lower.

# example entries with known answers
{"substance": "KAKAQANM [TM152]", "qualitative label": "false (0)"}
{"substance": "CKIKQIINMWQ [MG5a / CK17]", "qualitative label": "true (1)"}
{"substance": "HHHHKIKIKIKIYYYY [TM6]", "qualitative label": "true (1)"}
{"substance": "CEFEFQF [KB12]", "qualitative label": "false (0)"}

Ask | Decide: Tht rel to blank (42.1851851851852) of KFKFKFQF [TG18] >= 3?
Reply | true (1)

Ask | Decide: Tht rel to blank (42.1851851851852) of CKIKIQINMW [TM86] >= 3?
Reply | false (0)

Ask | Decide: Tht rel to blank (42.1851851851852) of KIKIQINM [JGB2] >= 3?
Reply | false (0)

Ask | Decide: Tht rel to blank (42.1851851851852) of KFKFQFF [TG6] >= 3?
Reply | false (0)

Ask | Decide: Tht rel to blank (42.1851851851852) of QCKFKQFFNM [CK11] >= 3?
Reply | true (1)

Ask | Decide: Tht rel to blank (42.1851851851852) of QCKFKFQFNM [CK8] >= 3?
Reply | false (0)

Ask | Decide: Tht rel to blank (42.1851851851852) of CKAKAQA [TM155] >= 3?
Reply | false (0)

Ask | Decide: Tht rel to blank (42.1851851851852) of CKIKIQINM [MG2] >= 3?
Reply | false (0)

Ask | Decide: Tht rel to blank (42.1851851851852) of CKFKFQFNMWQ [BL2] >= 3?
Reply | false (0)
